System: IGROV-1
TEST_DESCRIPTION: NCI tumour cell line growth inhibition, 48 h
Active and inactive are the calls of the source. Cut-off read from the data, not from the text of the source: active = GI50 up to about 1.1 µM and inactive = higher.
Return exactly one item of Yes = active, No = inactive

Query :: Short answer needed: outcome of this test for C/C=C/C1OC(O)(C(C)C(O)[C@H](C)C2OC(=O)/C(OC)=C/C(C)=C/[C@@H](C)[C@@H](O)[C@@H](C)C(O)C(C)C/C(C)=C/C=C/C2OC)C[C@@H](OC2CC(O)C(OC(N)=O)C(C)O2)C1C (some centres undefined) ?
Result :: Yes

Query :: Short answer needed: outcome of this test for O=C(NN1C(=O)C(Cl)C1c1cccc(Cl)c1)c1ccccc1O (centres undefined) ?
Result :: No

Query :: Short answer needed: outcome of this test for O=c1c2ncn(CCCl)c2n(-c2ccccc2)c(=S)n1-c1ccccc1 ?
Result :: No

Query :: Short answer needed: outcome of this test for Nc1nc(Cl)cc(Nc2cc(Cl)cc(Cl)c2)n1 ?
Result :: No

Query :: Short answer needed: outcome of this test for COC(=O)c1c(C#C[Si](C)(C)C)c(C#C[Si](C)(C)C)c(C#C[Si](C)(C)C)c(C#C[Si](C)(C)C)c1C(=O)OC ?
Result :: No

Query :: Short answer needed: outcome of this test for OC(c1ccco1)C(F)(F)c1nc2ccccc2o1 (centres undefined) ?
Result :: No

Query :: Short answer needed: outcome of this test for N#Cc1c(NC(=S)Nc2ccc(Cl)cc2)sc2c1CCCC2 ?
Result :: No

Query :: Short answer needed: outcome of this test for OCc1ccc(-c2ccc(-c3ccc(CO)s3)o2)s1 ?
Result :: Yes

Query :: Short answer needed: outcome of this test for CSc1ccc(NC(=O)C2CCCCC2C(=O)O)cc1 (centres undefined) ?
Result :: No
